Origin of measurements: ChEMBL document CHEMBL4422636

- EXPERIMENTAL_SYSTEM: Glutamate receptor ionotropic, NMDA 2D (Rattus norvegicus)
- EXPERIMENT: Allosteric modulation of rat GluN2D expressed in Xenopus laevis oocytes assessed as L-glutamate/glycine-induced current response at 100 uM at holding potential -60 mV by two-electrode voltage clamp method relative to L-glutamate/glycine
- Format: cell-based
PROPERTY: Activity (%)

Worked set:
> print(dat)
                                   molecule  property  measured.number
1  O=C(O)c1cc2ccc(/C=C/c3ccccc3)cc2cc1C(=O)O  Activity             38.6
2              CCCCCc1ccc2cc(CC(=O)O)ccc2c1  Activity               37
3             CCCCCc1ccc2cc(C(=O)O)ccc2c1Br  Activity               99
4               O=C(O)c1ccc2cc(C3CC3)ccc2c1  Activity               94
5   O=C(O)c1cc2cc(CCc3ccccc3C(=O)O)ccc2cc1O  Activity             80.7
6  O=C(O)c1cccc(/C=C/c2ccc3cc(O)c(C(=O)O)cc3c2)c1  Activity             61.4

A. O=C(O)c1cc2cc(/C=C/c3ccccc3)ccc2cc1O
B. CC(C)CCCc1ccc2cc(C(=O)O)ccc2c1
C. COc1ccccc1/C=C/c1ccc2cc(O)c(C(=O)O)cc2c1
D. O=C(O)c1cc2cc(CCc3ccccc3)ccc2cc1O
E. C=C(CCC(C)C)c1ccc2cc(C(=O)O)ccc2c1
Challenge: Sort low-to-high on Activity, please. Provide the ranking by listing each label in its place in the requested order.
Response given: A, D, C, B, E
(A: 11.3%, D: 32.1%, C: 71%, B: 207%, E: 310%)

P. CC(C)CNC(=O)c1ccc2cc(C(=O)O)ccc2c1
Q. CC(C)C/C=C/c1ccc2cc(C(=O)O)ccc2c1
R. CC(C)CCC(C)c1ccc2cc(C(=O)O)ccc2c1 (racemic)
Challenge: Sort low-to-high on Activity, please. Provide the ranking by listing each label in its place in the requested order.
Response given: P, Q, R
(P: 99%, Q: 220%, R: 317%)

###

- EXPERIMENTAL_SYSTEM: Glutamate receptor ionotropic, NMDA 2C (Rattus norvegicus) (UniProt Q00961)
- Sequence (Q00961 20-1237 limits assumed): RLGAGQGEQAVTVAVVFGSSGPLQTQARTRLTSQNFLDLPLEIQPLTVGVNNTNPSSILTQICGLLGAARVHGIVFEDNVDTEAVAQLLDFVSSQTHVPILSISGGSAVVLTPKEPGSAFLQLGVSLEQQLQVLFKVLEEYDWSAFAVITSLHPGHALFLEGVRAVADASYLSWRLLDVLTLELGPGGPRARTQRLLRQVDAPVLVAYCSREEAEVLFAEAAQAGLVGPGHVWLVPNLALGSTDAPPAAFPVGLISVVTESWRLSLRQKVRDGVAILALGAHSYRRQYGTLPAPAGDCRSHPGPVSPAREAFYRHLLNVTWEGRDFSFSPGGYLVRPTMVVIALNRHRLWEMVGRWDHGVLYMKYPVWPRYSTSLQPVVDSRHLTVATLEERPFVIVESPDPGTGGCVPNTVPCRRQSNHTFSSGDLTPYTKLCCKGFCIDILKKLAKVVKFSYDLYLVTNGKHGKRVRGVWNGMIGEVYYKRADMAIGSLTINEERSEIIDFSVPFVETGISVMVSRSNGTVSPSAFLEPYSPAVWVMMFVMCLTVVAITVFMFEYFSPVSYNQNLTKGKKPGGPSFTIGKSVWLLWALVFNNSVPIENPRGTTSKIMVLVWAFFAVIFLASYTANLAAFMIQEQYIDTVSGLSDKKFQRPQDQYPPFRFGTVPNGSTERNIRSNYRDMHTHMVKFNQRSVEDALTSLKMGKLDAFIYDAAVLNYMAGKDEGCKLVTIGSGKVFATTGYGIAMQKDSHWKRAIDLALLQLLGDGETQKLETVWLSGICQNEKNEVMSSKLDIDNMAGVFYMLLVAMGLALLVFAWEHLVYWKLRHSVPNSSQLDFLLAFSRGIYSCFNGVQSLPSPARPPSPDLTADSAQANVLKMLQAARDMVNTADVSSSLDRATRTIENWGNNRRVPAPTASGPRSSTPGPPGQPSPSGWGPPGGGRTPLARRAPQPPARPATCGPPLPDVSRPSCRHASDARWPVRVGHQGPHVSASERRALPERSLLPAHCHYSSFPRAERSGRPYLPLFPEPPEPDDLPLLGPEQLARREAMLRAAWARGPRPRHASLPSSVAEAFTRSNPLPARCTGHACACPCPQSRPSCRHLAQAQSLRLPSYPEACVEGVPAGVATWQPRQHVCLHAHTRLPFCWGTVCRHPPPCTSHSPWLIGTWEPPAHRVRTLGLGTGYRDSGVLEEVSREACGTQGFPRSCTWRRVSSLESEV
- EXPERIMENT: Allosteric modulation of rat GluN2C expressed in Xenopus laevis oocytes assessed as L-glutamate/glycine-induced current response at 100 uM at holding potential -60 mV by two-electrode voltage clamp method relative to L-glutamate/glycine
- Assay type: cell-based
PROPERTY: Activity (%)

Worked set:
> print(dat)
                                   compound  property  result.unit  measured.number
1  O=C(O)c1ccc(CCc2ccc3cc(O)c(C(=O)O)cc3c2)cc1  Activity            %              115
2          O=C(O)c1cc2cc(-c3ccccc3)ccc2cc1O  Activity            %             26.1
3        CC(C)COC(=O)c1ccc2cc(C(=O)O)ccc2c1  Activity            %              144

1. CCCCCc1ccc2cc(CC(=O)O)ccc2c1
2. O=C(O)c1cc2ccc(/C=C/c3ccccc3)cc2cc1C(=O)O
3. CC(C)CCC(C)c1ccc2cc(C(=O)O)ccc2c1 (racemic)
Challenge: Task field, ranking: reported Activity, descending order. Provide the ranking by listing each label in its place in the requested order.
Response given: 3, 1, 2
(3: 337%, 1: 60%, 2: 37.1%)
